Assay: 28-day repeat-dose oral toxicokinetics
Assay type: in vivo, CD-1 mouse
Settings: male, CD-1, mouse, plasma, po, 0.5 g/kg, 0.5 g/kg/dose BID, Day 1, Male
Protocol: Toxicokinetics of ribitol was evaluated as part of the 28-day toxicology study in male and female CD-1 mice. […] Toxicokinetic animals were 12/sex in the control group and 48/sex/group in the treated groups. Blood samples were collected on Day 1 and Day 28 at pre-first dose, 0.5, 2, 4, 8 (prior to second dose), 8.5, 10, and 24 h.
readout label: Tmax (min)
// return numeric value only (unit: min, not printed)

Documented Tmax of "OC[C@@H](O)[C@@H](O)[C@@H](O)CO" : 30

Provenance of the data: patent US20230364118A1
